# Tested on: Coxsackievirus B2
# METHOD DESCRIPTION: microbe, parasite or virus in culture
# Format: cell-based
# MEASUREMENT CONTEXT: read-out: EC50 CVB2
pEC50: −log10 of the molar value.
Output yes (1) for pEC50 not less than 6; output no (0) otherwise.

- CC(C)n1ncc2c(C(=O)N(C)c3ccccn3)cc(-c3cccs3)nc21: no (0)
- CC(C)n1ncc2c(C(=O)Nc3ccc(S(C)(=O)=O)cc3)cc(-c3cccs3)nc21: yes (1)
- CC(C)n1ncc2c(C(=O)Nc3ccc(F)cc3F)cc(-c3cccs3)nc21: no (0)
- CC(C)n1ncc2c(C(=O)Nc3cncnc3)cc(-c3cccs3)nc21: yes (1)
- CC(C)n1ncc2c(C(=O)Nc3ccccc3F)cc(-c3cccs3)nc21: no (0)
- CC(C)n1ncc2c(C(=O)Nc3cccc(F)c3)cc(-c3cccs3)nc21: no (0)
- CC(C)n1ncc2c(C(=O)Nc3ccc(F)cc3)cc(-c3ccco3)nc21: no (0)
- CC(C)n1ncc2c(C(=O)Nc3cccc(C(N)=O)c3)cc(-c3cccs3)nc21: yes (1)
- CC(C)n1ncc2c(C(=O)Nc3ccccc3S(N)(=O)=O)cc(-c3cccs3)nc21: no (0)
- CC(C)n1ncc2c(C(=O)Nc3cc(S(N)(=O)=O)ccc3F)cc(-c3cccs3)nc21: yes (1)
- CC(C)n1ncc2c(C(=O)Nc3cccnc3)cc(-c3cccs3)nc21: yes (1)
- CC(C)n1ncc2c(C(=O)Nc3ccccn3)cc(-c3ccccc3)nc21: no (0)
- CC(C)n1ncc2c(C(=O)Nc3ccncc3)cc(-c3cccs3)nc21: yes (1)
- CC(C)n1ncc2c(C(=O)Nc3ccc(F)cc3)cc(C3CC3)nc21: no (0)
- CNS(=O)(=O)c1cccc(NC(=O)c2cc(-c3cccs3)nc3c2cnn3C(C)C)c1: yes (1)
- CC(C)n1ncc2c(C(=O)Nc3ccc(F)cc3)cc(-c3ccsc3)nc21: no (0)
- CC(C)n1ncc2c(C(=O)Nc3cccnc3)cc(-c3ccsc3)nc21: yes (1)
